system: Enterobacterales expressing class A carbapenemases (KPC); experiment: organism not typed; format: cell-based, K. pneumoniae, E. coli, E. cloacae, Klebsiella oxytoca; details: K. pneumoniae 845662 (KPC)
Property name: MIC

Nc1nc(/C(=C/CC(=O)O)C(=O)N[C@@H]2C(=O)N3C(C(=O)O)=CCS[C@H]23)cs1
16 µg/mL

Fill in MIC for each of the 2 compounds listed.
1. CC1(C)S[C@@H]2[C@H](NC(=O)[C@H](N)c3ccc(O)cc3)C(=O)N2[C@H]1C(=O)O
2. C[C@@H](O)[C@H]1C(=O)N2C(C(=O)O)=C(SC3CN(C4=NCCS4)C3)[C@H](C)[C@H]12

Resp:
1: ≥ 64 µg/mL; 2: ≥ 64 µg/mL

Req: Any idea what its MIC is? The compound is C[C@@H](O)[C@H]1C(=O)N2C(C(=O)O)=C(S[C@H]3CC[S@@+]([O-])C3)S[C@H]12
Resp: ≥ 64 µg/mL

----------
test system: Enterobacterales expressing class C cephalosporinases; conditions: K. pneumoniae 178279 (AmpC, SHV-12, TEM-1)
Property name: MIC

The cases that follow already have their MIC on record.
C[C@@H](O)[C@H]1C(=O)N2C(C(=O)O)=C(S[C@H]3CC[S@@+]([O-])C3)S[C@H]12
0.06 mg/L
CC1(C)S[C@@H]2[C@H](NC(=O)[C@H](N)c3ccc(O)cc3)C(=O)N2[C@H]1C(=O)O
≥ 256 mg/L
C[C@@H](O)[C@H]1C(=O)N2C(C(=O)O)=C(SC3CN(C4=NCCS4)C3)[C@H](C)[C@H]12
0.03 mg/L

Req: Any idea what its MIC is? The molecule is Nc1nc(/C(=C/CC(=O)O)C(=O)N[C@@H]2C(=O)N3C(C(=O)O)=CCS[C@H]23)cs1
Resp: 8 mg/L

----------
target: OXA-1 (Escherichia coli); assay: IC50 determination against purified β-lactamase; settings: substrate nitrocefin; mean from duplicate measurements
Property name: pIC50
Answers are plain numbers, as −log10 of the molar value.

CCC(=O)N[C@H]1Cc2cccc(C(=O)O)c2OB1O
7.15

Fill in pIC50 for each of the 2 molecules listed.
1. NC(=O)[C@@H]1CC[C@@H]2CN1C(=O)N2OS(=O)(=O)O
2. O=C(O)[C@H]1/C(=C/CO)O[C@@H]2CC(=O)N21

Resp:
7.40
6.92

----------
I'd be grateful if you could share measured MIC for these entries.
system: Enterobacterales expressing class C cephalosporinases; conditions: K. pneumoniae 301313 (AmpC, SHV-12, TEM-1)

The cases that follow already have their MIC on record.
C[C@@H](O)[C@H]1C(=O)N2C(C(=O)O)=C(SC3CN(C4=NCCS4)C3)[C@H](C)[C@H]12
0.06 µg/mL
C[C@@H](O)[C@H]1C(=O)N2C(C(=O)O)=C(S[C@H]3CC[S@@+]([O-])C3)S[C@H]12
0.12 µg/mL
CC1(C)S[C@@H]2[C@H](NC(=O)[C@H](N)c3ccc(O)cc3)C(=O)N2[C@H]1C(=O)O
≥ 256 µg/mL

Here is another molecule to look at.
Req: Return MIC measured with Enterobacterales expressing class C cephalosporinases given this molecule: Nc1nc(/C(=C/CC(=O)O)C(=O)N[C@@H]2C(=O)N3C(C(=O)O)=CCS[C@H]23)cs1
Resp: ≥ 64 µg/mL

----------
system: Enterobacterales expressing class C cephalosporinases; details: P. mirabilis SI-F014 (AmpC, TEM-72)
Property name: MIC (µg/mL)
Answers are plain numbers, in µg/mL.

C[C@@H](O)[C@H]1C(=O)N2C(C(=O)O)=C(S[C@H]3CC[S@@+]([O-])C3)S[C@H]12
1

Req: Return MIC measured with Enterobacterales expressing class C cephalosporinases given this compound: C[C@@H](O)[C@H]1C(=O)N2C(C(=O)O)=C(SC3CN(C4=NCCS4)C3)[C@H](C)[C@H]12
Resp: 2

----------
I'd be grateful if you could share measured MIC for these entries.
test system: Enterobacterales expressing class C cephalosporinases; details: E. coli EC469 (AmpC, SHV-12, TEM-1)
Give bare numbers, in µg/mL.

The cases that follow already have their MIC on record.
CC1(C)S[C@@H]2[C@H](NC(=O)[C@H](N)c3ccc(O)cc3)C(=O)N2[C@H]1C(=O)O [AMX, amoxicillin]
128
C[C@@H](O)[C@H]1C(=O)N2C(C(=O)O)=C(S[C@H]3CC[S@@+]([O-])C3)S[C@H]12 [Sulopenem]
0.03

Here is another compound to look at.
Req: Any idea what its MIC is? The compound is Nc1nc(/C(=C/CC(=O)O)C(=O)N[C@@H]2C(=O)N3C(C(=O)O)=CCS[C@H]23)cs1 [CTB, ceftibuten]
Resp: 2

----------
system: Enterobacterales expressing class D oxacillinases (OXA-48/48-like); test: organism not typed; assay type: cell-based, E. coli, K. pneumoniae; settings: E. coli 664516 (OXA-48)
Property name: MIC (µg/mL)
Numbers only, in µg/mL.

The cases that follow already have their MIC on record.
Nc1nc(/C(=C/CC(=O)O)C(=O)N[C@@H]2C(=O)N3C(C(=O)O)=CCS[C@H]23)cs1 [CTB, ceftibuten]
32
C[C@@H](O)[C@H]1C(=O)N2C(C(=O)O)=C(SC3CN(C4=NCCS4)C3)[C@H](C)[C@H]12 [Tebipenem]
8

Here is another molecule to look at.
Req: Any idea what its MIC is? The molecule is C[C@@H](O)[C@H]1C(=O)N2C(C(=O)O)=C(S[C@H]3CC[S@@+]([O-])C3)S[C@H]12 [Sulopenem]
Resp: 16

----------
I'd be grateful if you could share measured IC50 for these entries.
target: KPC-2 (Klebsiella pneumoniae, UniProt Q9F663); assay: IC50 determination against purified β-lactamase; conditions: substrate imipenem; mean from duplicate measurements
One number for each entry, in nM.

The cases that follow already have their IC50 on record.
CCC(=O)N[C@H]1Cc2cccc(C(=O)O)c2OB1O
80
O=C(O)[C@H]1/C(=C/CO)O[C@@H]2CC(=O)N21
1800

Req: Any idea what its IC50 is? The molecule is C[C@]1(Cn2ccnn2)[C@H](C(=O)O)N2C(=O)C[C@H]2S1(=O)=O
Resp: 1700

----------
I'd be grateful if you could share measured pIC50 for these entries.
molecular target: CTX-M-15 (Escherichia coli); test: IC50 determination against purified β-lactamase; assay type: biochemical; parameters: made in house; host or cells: E. coli BL21(DE3), plasmid pET-CTX-M-15 (pET9a); settings: substrate cefotaxime; mean from duplicate measurements; read-out: IC50
Sequence (Q9EXV5 entry or part of it): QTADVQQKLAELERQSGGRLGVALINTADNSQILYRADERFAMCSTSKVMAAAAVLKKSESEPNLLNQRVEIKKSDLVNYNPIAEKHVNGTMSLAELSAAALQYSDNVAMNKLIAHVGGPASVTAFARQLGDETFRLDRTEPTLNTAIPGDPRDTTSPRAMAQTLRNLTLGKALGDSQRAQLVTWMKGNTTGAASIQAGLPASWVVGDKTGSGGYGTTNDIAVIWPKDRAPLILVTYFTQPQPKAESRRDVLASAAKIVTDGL
One number for each entry, as −log10 of the molar value.

NC(=O)[C@@H]1CC[C@@H]2CN1C(=O)N2OS(=O)(=O)O
8.52

Here is another compound to look at.
Req: Any idea what its pIC50 is? The compound is O=C(O)[C@H]1/C(=C/CO)O[C@@H]2CC(=O)N21
Resp: 7.40

----------
molecular target: UniProt P0A3M1
Property name: Ki (nM)
One number for each entry, in nM.

Req: Any idea what its Ki is? The compound is CCC(=O)N[C@H]1Cc2cccc(C(=O)O)c2OB1O [VNRX-5236]
Resp: 40

----------
tested on: Enterobacterales expressing class D oxacillinases (OXA-48/48-like); assay: organism not typed; assay type: cell-based, E. coli, K. pneumoniae; conditions: K. pneumoniae 515746 (OXA-48), first line
I'd be grateful if you could share measured MIC for these entries.

The cases that follow already have their MIC on record.
Nc1nc(/C(=C/CC(=O)O)C(=O)N[C@@H]2C(=O)N3C(C(=O)O)=CCS[C@H]23)cs1
16 µg/mL
C[C@@H](O)[C@H]1C(=O)N2C(C(=O)O)=C(S[C@H]3CC[S@@+]([O-])C3)S[C@H]12
2 µg/mL
C[C@@H](O)[C@H]1C(=O)N2C(C(=O)O)=C(SC3CN(C4=NCCS4)C3)[C@H](C)[C@H]12
1 µg/mL

Req: Return MIC measured with Enterobacterales expressing class D oxacillinases (OXA-48/48-like) given this compound: CC1(C)S[C@@H]2[C@H](NC(=O)[C@H](N)c3ccc(O)cc3)C(=O)N2[C@H]1C(=O)O
Resp: ≥ 256 µg/mL

----------
test system: Enterobacterales expressing class D oxacillinases (OXA-48/48-like); test: organism not typed; assay type: cell-based, E. coli, K. pneumoniae; settings: K. pneumoniae KIRK (OXA-162)
I'd be grateful if you could share measured MIC for these entries.
Numbers only, in µg/mL.

The cases that follow already have their MIC on record.
Nc1nc(/C(=C/CC(=O)O)C(=O)N[C@@H]2C(=O)N3C(C(=O)O)=CCS[C@H]23)cs1 [CTB, ceftibuten]
8
C[C@@H](O)[C@H]1C(=O)N2C(C(=O)O)=C(SC3CN(C4=NCCS4)C3)[C@H](C)[C@H]12 [Tebipenem]
1

Here is another molecule to look at.
Req: Any idea what its MIC is? The molecule is C[C@@H](O)[C@H]1C(=O)N2C(C(=O)O)=C(S[C@H]3CC[S@@+]([O-])C3)S[C@H]12 [Sulopenem]
Resp: 4
